Tested on: BRAF
condition_details: concentration: 1 μM, replicates: in singlicate; n = 1;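 note: KINOMEscan kinase panel screen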
Reported %Inh values for a set of compounds
Number in %, nothing else.

Solved entries:
smiles_text	study_target	unit_of_measurement	%Inh
O=C(O)C(F)(F)F.O=c1[nH]ccc2nc(N[C@@H]3CCNC3)nc(Nc3cc(Cl)cc(Cl)c3)c12	BRAF	%	0
Nc1ncc(-c2ccc3nccc(-c4ccncc4)c3c2)cc1S(=O)(=O)N1CCCCC1	BRAF	%	8
CCOc1nccc(-c2c(-c3ccc(F)cc3)ncn2C2CCNCC2)n1	BRAF	%	5

I'd like to know its %Inh. The compound in question is Cc1nn2c(=O)cc(N3CCO[C@H](C)C3)nc2n1Cc1cccc(Cl)c1Cl
2

Now try COC(=O)Nc1nc2cc(Oc3ccc(NC(=O)Nc4cccc(SC)c4)cc3)ccc2[nH]1.Cl .
83

Let us now turn to CS(=O)(=O)c1cccc(CNc2nc(Nc3ccc4c(c3)CCC(=O)N4)ncc2C(F)(F)F)c1
0

====

Tested on: CDK9
condition_details: concentration: 1 μM, replicates: in singlicate; n = 1
Readings of %Inh for the listed molecules
Give just the number in %; leave the unit off.

Sample answers from the record:
molecule	unit_of_measurement	recorded_number
COc1ccc(NC(=O)c2ccoc2)cc1-c1ccc(C(=O)NCC2CC2)cc1 [GW810437]	%	16
O=C(Nc1n[nH]c2nc(-c3cccc(O)c3)ccc12)C1CC1 [SB-711805]	%	0
COc1cccc(C2=C(Nc3cccc(O)c3)C(=O)NC2=O)c1 [SB-390771]	%	0
CS(=O)(=O)c1cccc(CNc2nc(Nc3ccc4c(c3)CCC(=O)N4)ncc2C(F)(F)F)c1	%	8
CN(C)CCOc1ccc(-c2cc(-c3ccc(Cl)c(O)c3)c(-c3ccncc3)[nH]2)cc1.Cl.Cl [SB-684387]	%	18
CN(c1ccc(F)c(NC(=O)c2cccc(OC(C)(C)C#N)c2Cl)c1)c1ccc2nc(NC(=O)C3CC3)sc2n1	%	0

Need %Inh, item CCn1c(-c2nonc2N)nc2c(-c3ccccc3)ncc(OCCCN)c21.O=C(O)C(F)(F)F.O=C(O)C(F)(F)F [GSK260205]
0

For Nc1cccc(-c2ccc3c(N)n[nH]c3c2)c1 [GSK2193613] then?
3

Another molecule to check: O=C(Nc1n[nH]c2cc(-c3cccs3)ccc12)C1CC1 [SB-731284]
3

Next record, please: Cl.O=C(Nc1ccc(Oc2ccc3[nH]c(NC(=O)c4ccco4)nc3c2)cc1)Nc1cc(C(F)(F)F)ccc1F [GW683134]
5

Consider next the molecule COC(=O)Nc1nc2cc(Oc3ccc(NC(=O)Nc4cccc(SC)c4)cc3)ccc2[nH]1.Cl [GW697999] in the same way.
0

How about Cc1ccc(NC(=O)c2cccc(N3CCCCC3)c2)cc1-c1ccc(C(=O)NCC2CC2)cc1 [GSK1917008] ?
0

====

System: EIF2AK1
condition_details: concentration: 1 μM, replicates: in singlicate; n = 1
Measured %Inh values are reported for all entries that follow.
Write the value in % as a bare number.

Reported %Inh, compound CS(=O)(=O)c1cccc(CNc2nc(Nc3ccc4c(c3)CCC(=O)N4)ncc2C(F)(F)F)c1 : ____
0

====

Test system: CDKL3
condition_details: concentration: 1 μM, replicates: in singlicate; n = 1
The following molecules are shown together with reported %Inh values.
Hi, when you answer, please include the unit after the number. Thanks!

Guide cases for %Inh, answers given:
molecule	assay_readout	result
CS(=O)(=O)c1cccc(CNc2nc(Nc3ccc4c(c3)CCC(=O)N4)ncc2C(F)(F)F)c1	%Inh	10%
CCn1cnc2c(NCc3ccccc3)ncnc21 [SKF-96418]	%Inh	12%
Cc1cc(-c2ccnc(Nc3cccc(C#N)c3)n2)cc(C)c1O [GSK1440913]	%Inh	99.1%
Cc1ccc(NC(=O)c2ccc(Cl)c(Cl)c2)cc1-c1ccc(C(=O)Nc2ccncc2)cc1 [GSK1398460]	%Inh	0%
COc1cccc(-c2nc(-c3ccccc3)[nH]c2-c2ccncc2)c1 [SB-610250]	%Inh	0%

Give %Inh (CDKL3) of the following molecule: CC(C)NCC(Cc1ccccc1)NC(=O)c1cc(Br)c(-c2ccnc3[nH]ccc23)s1.Cl.Cl (stereo not drawn) [GSK1383281]
0%

What do you have for COc1cc(Nc2nccc(N3CCC(NS(=O)(=O)c4ccc(NC(C)=O)cc4)CC3)n2)cc(OC)c1OC [GSK1379825] ?
0%

Check Nc1ncc(-c2cn[nH]c2)c2scc(-c3ccc4c(c3)CCN4C(=O)Cc3ccccc3)c12 [GSK2593067] too.
0%

Repeat with CN(c1ccc2c(c1)nc(NCc1ccccc1)n2C)c1ccnc(Nc2ccc(CS(C)(=O)=O)cc2)n1.Cl [GW811603]
16%

// next record COC(=O)Nc1nc2ccc(Oc3ccc(CC(=O)Nc4cc(C(F)(F)F)ccc4F)cc3)cc2[nH]1 [GW680903]
0%

Lookup Cc1ccc(Nc2ccnc(Nc3ccc(C)c(F)c3)n2)cc1O.Cl [GW582868]
0%

Next record, please: Cn1cc(-c2cnc(N)c3c(-c4ccc5c(c4)CCN5C(=O)Cc4ccccc4)csc23)cn1 [GSK2593074]
4%

Same question for Cc1ccccc1CC(=O)N1CCc2cc(-c3cn(C)c4ncnc(N)c34)ccc21 [GSK2603346] please.
0%

Another molecule to check: CC(C)c1nc(-c2ccc(F)c(NS(=O)(=O)c3c(F)cccc3F)c2)c(-c2ccnc(Nc3ccc(N4CCOCC4)nc3)n2)s1 [GSK1804250]
0%

Now give it for Cn1cc(-c2ccc3c(c2)CCN3C(=O)Cc2cc(F)cc(C(F)(F)F)c2)c2c(N)ncnc21 [GSK2635225] too.
0%

Check COc1cccc(C2=C(Nc3cccc(O)c3)C(=O)NC2=O)c1 [SB-390771] too.
0%

Moving on to Cc1cccc(Nc2nc(NCCN)ncc2C(N)=O)c1 [GSK1292139]
0%

Now consider COc1cc(Nc2nccc(N3CCC(NC(=O)Nc4ccc5c(c4)OCO5)C3)n2)cc(OC)c1OC (stereo not drawn) [GSK1379766] and answer again.
0%

Then this molecule: CN(C)c1ncnc2nc[nH]c12 [SKF-31736]
0%

Also check CN1CCN(Cc2ccc(NC(=O)Nc3ccc(N(C)c4ccnc(Nc5ccc(CS(C)(=O)=O)cc5)n4)cc3)cc2)CC1.Cl [GW827654]
99.6%

Consider next the molecule O=C(Nc1n[nH]c2nc(-c3ccccc3)ccc12)C1CC1 [SB-708999] in the same way.
10%

====

As shown below, each of these compounds has a reported %Inh value.
System: DAPK1
condition_details: concentration: 1 μM, replicates: in singlicate; n = 1
Could you give me the number in %? Just the number is fine.

compound	study_target	%Inh (%)
CN(C)c1ncnc2nc[nH]c12	DAPK1	7
COc1ccc(C)c(Nc2ccnc(Nc3ccc(-c4cnc[nH]4)cc3)n2)c1.Cl	DAPK1	7
Nc1ncnc2scc(-c3ccc(NC(=O)Cc4cc(F)ccc4F)cc3)c12.O=C(O)C(F)(F)F	DAPK1	0
Cc1ccc(C)c(NC(=O)Nc2ccc(C)c(-c3ccc(C(=O)Nc4ccncc4)cc3)c2)c1	DAPK1	26
Cc1cccc(Nc2nc(N[C@H]3CCCC[C@H]3N)ncc2C(N)=O)c1.Cl	DAPK1	86
Cn1cc(-c2ccc3c(c2)CCN3C(=O)Cc2cc(F)cc(F)c2F)c2c(N)ncnc21	DAPK1	0
COc1ccc(C2=C(Nc3cccc(O)c3)C(=O)NC2=O)cc1	DAPK1	0
Cc1ccc(O)cc1Nc1ccnc2ccc(C(C)(C)C)cc12	DAPK1	13
Nc1ncc(-c2cn[nH]c2)c2scc(-c3ccc4c(c3)CCN4C(=O)Cc3ccccc3)c12	DAPK1	0
CC(C)NCC(Cc1ccccc1)NC(=O)c1cc(Br)c(-c2ccnc3[nH]ccc23)s1.Cl.Cl (stereo not drawn)	DAPK1	18

For O=C1NC(=O)C(c2ccccc2Cl)=C1Nc1cccc(Cl)c1 , what is its reported %Inh?
0

Same for Fc1cc(Cl)ccc1Nc1ccnc2cc(-c3ccc(CN4CCOCC4)o3)ccc12
0

====

Tested on: CAMKK2
condition_details: concentration: 1 μM, replicates: in singlicate; n = 1
Known %Inh of a selection of molecules
Show the value, then the unit it is measured in.

For COc1cccc2c(-c3ccncc3)c(-c3ccc(F)cc3)nn12 , what is its reported %Inh?
5%

====

Tested on: CAMK2A
condition_details: concentration: 1 μM, replicates: in singlicate; n = 1
Parameter: %Inh. Scope: all listed entries.
I only need the number, in %, no unit after it.

Answered cases to consult:
smiles_text	recorded_number
Cc1cc(-c2ccnc(Nc3cccc(C#N)c3)n2)cc(C)c1O	13
O=C(Nc1n[nH]c2nc(-c3ccccc3)ccc12)C1CC1	0
COc1cccc(CC(=O)N2CCc3cc(-c4cn(C)c5ncnc(N)c45)ccc32)c1	0
CN(C)CCNS(=O)(=O)c1ccc(-c2ccnc3[nH]ccc23)cc1	0

%Inh lookup needed for Cc1ccc(C)c(NC(=O)Nc2ccc(C)c(-c3ccc(C(=O)Nc4ccncc4)cc3)c2)c1 , thanks.
0

Item: COC(=O)Nc1nc2cc(Oc3ccc(NC(=O)Nc4cccc(SC)c4)cc3)ccc2[nH]1.Cl
18

Now give it for COc1cc(Nc2nccc(N3CCC(NS(=O)(=O)c4ccc(NC(C)=O)cc4)CC3)n2)cc(OC)c1OC too.
0

How about this compound: Fc1cc(Cl)ccc1Nc1ccnc2cc(-c3ccc(CN4CCOCC4)o3)ccc12
0

And CCn1c(-c2nonc2N)nc2c(-c3ccccc3)ncc(OCCCN)c21.O=C(O)C(F)(F)F.O=C(O)C(F)(F)F ?
0
